# Test system: Fibroblast
# test_details: Multiplex assay against human fibroblast
# Type: toxicity, cell-based
# applied_conditions: 48 h, 10 µM, compound concentration 10 uM, replicate 1
property_label: Population Membrane Permeable-Phenotype (%)
The reply should contain only the number, in %.

What the record says about O=C(O)Cc1ccccc1Nc1c(Cl)cccc1Cl : Population Membrane Permeable-Phenotype (%) is 0

What the record says about CN(C)CCCc1cc(C(=O)Nc2ccc(-c3ccncc3)cc2)ccc1O.Cl.Cl : Population Membrane Permeable-Phenotype (%) is 0

What the record says about N[C@@]1(C(=O)O)CO[C@H]2[C@H](C(=O)O)[C@H]21 : Population Membrane Permeable-Phenotype (%) is 0

What the record says about O=S(=O)(c1ccccc1)c1cnc2c(N3CCNCC3)cccc2c1 [INTEPIRDINE] : Population Membrane Permeable-Phenotype (%) is 1

What the record says about COc1ccc2c(c1)C(C(=O)N(Cc1ccc(N(C)C)cc1)c1ccc(C(C)C)cc1)CCC2.Cl (stereo not given) : Population Membrane Permeable-Phenotype (%) is 0

What the record says about CCCn1c(=O)c2[nH]c(C3CCCC3)nc2n(CCC)c1=O : Population Membrane Permeable-Phenotype (%) is 1

What the record says about Cl.Clc1ccc2nsnc2c1NC1=NCCN1 [TIZANIDINE HYDROCHLORIDE] : Population Membrane Permeable-Phenotype (%) is 0

What the record says about CSc1ccccc1N1CCN(CCCCCC(=O)NC2CCCc3ccccc32)CC1.Cl (stereo not given) : Population Membrane Permeable-Phenotype (%) is 0

What the record says about CNC[C@H](O)c1ccc(O)c(O)c1 [EPINEPHRINE] : Population Membrane Permeable-Phenotype (%) is 2

What the record says about C[C@H]1[C@H]2CC[C@H]3[C@@H]4CC=C5C[C@@H](N(C)C)CC[C@]5(C)[C@H]4CC[C@]23CN1C : Population Membrane Permeable-Phenotype (%) is 0

What the record says about O=C(NCC(=O)N1CC[C@H](N[C@H]2CC[C@@](O)(c3ccc(-c4ncccn4)cn3)CC2)C1)c1cccc(C(F)(F)F)c1 : Population Membrane Permeable-Phenotype (%) is 0

What the record says about Cc1nc2ccc(Oc3ccc(F)cc3)cc2c(=O)n1C[C@H]1CCCN(C(C)C)C1.Cl : Population Membrane Permeable-Phenotype (%) is 0

What the record says about CCNC1(C(N)=O)CCN(c2ncnc3c2nc(-c2ccccc2Cl)n3-c2ccc(Cl)cc2)CC1 : Population Membrane Permeable-Phenotype (%) is 0

What the record says about COc1c(C)cc(NC(=O)c2nn(Cc3ccc(F)cc3)c3c2CN(C(=O)c2ccc[nH]2)C[C@]3(C)C(N)=O)cc1C : Population Membrane Permeable-Phenotype (%) is 0

What the record says about CC(=O)O[C@H]1C(=O)[C@@]2(C)[C@H]([C@H](OC(=O)c3ccccc3)[C@]3(O)C[C@H](OC(=O)[C@H](O)[C@@H](NC(=O)c4ccccc4)c4ccccc4)C(C)=C1C3(C)C)[C@]1(OC(C)=O)CO[C@@H]1C[C@@H]2O : Population Membrane Permeable-Phenotype (%) is 0

What the record says about CCOc1c2c(c(OCC)c3ncccc13)CN(c1ccc(CS(=O)(=O)NC(=O)Cc3ccccc3OC)cc1C)C2=O : Population Membrane Permeable-Phenotype (%) is 1

What the record says about Oc1c(CN2CCN(c3ccccn3)CC2)cc(Cl)c2cccnc12 : Population Membrane Permeable-Phenotype (%) is 0

What the record says about CN(C)c1ccnc2sc3c(=O)n(N4CCCCCC4)cnc3c12 : Population Membrane Permeable-Phenotype (%) is 0

What the record says about N#Cc1c(N)nc(SCc2csc(-c3ccc(Cl)cc3)n2)c(C#N)c1-c1ccc(OCCO)cc1 : Population Membrane Permeable-Phenotype (%) is 0

What the record says about O=C(NCCO)c1cccc(-c2cc(Nc3ccc(OC(F)(F)F)cc3)ncn2)c1 : Population Membrane Permeable-Phenotype (%) is 0

What the record says about Cc1ccc(F)cc1C(=O)Nc1ccc(C(=O)N2Cc3cccn3Cc3ccccc32)c(Cl)c1 : Population Membrane Permeable-Phenotype (%) is 0

What the record says about CN1CCN(c2nc3cc(C(F)(F)F)ccc3n3cccc23)CC1.O=C(O)/C=C\C(=O)O.O=C(O)/C=C\C(=O)O : Population Membrane Permeable-Phenotype (%) is 0

What the record says about COc1cc(C(=O)N(CCCc2ccccc2)Cc2ccc(CC(=O)O)cc2)cc(OC)c1C : Population Membrane Permeable-Phenotype (%) is 1

What the record says about O=C(O)c1cc2ccccc2c(Cc2c(O)c(C(=O)O)cc3ccccc23)c1O : Population Membrane Permeable-Phenotype (%) is 2

What the record says about Cc1ccccc1C(=O)Nc1ccc(C(=O)N2CCCC(N(C)C)c3ccccc32)cc1.Cl (stereo not given) : Population Membrane Permeable-Phenotype (%) is 0

What the record says about CC(=O)NCCc1c(Cc2ccccc2)[nH]c2ccccc12 : Population Membrane Permeable-Phenotype (%) is 0

What the record says about Cc1ccc(C(C)(O)c2nc3ccccc3s2)c(C)c1 (stereo not given) : Population Membrane Permeable-Phenotype (%) is 2

What the record says about O=C1COc2nccc(-c3ccccc3F)c2CN1Cc1cc(C(F)(F)F)cc(C(F)(F)F)c1 : Population Membrane Permeable-Phenotype (%) is 0

What the record says about CCCN1CCC[C@@H]2Cc3n[nH]cc3C[C@H]21.Cl [QUINPIROLE HYDROCHLORIDE] : Population Membrane Permeable-Phenotype (%) is 2

What the record says about COc1cc(NC(=O)CCN2CCC(OC(=O)Nc3ccccc3-c3ccccc3)CC2)c(Cl)cc1CNC[C@H](O)c1ccc(O)c2[nH]c(=O)ccc12 : Population Membrane Permeable-Phenotype (%) is 0

What the record says about CCCC(CCC)C(=O)O : Population Membrane Permeable-Phenotype (%) is 0

What the record says about Cc1ccc(/C(=C\CN2CCCC2)c2ccccn2)cc1 : Population Membrane Permeable-Phenotype (%) is 1

What the record says about CN1CCN2c3ncccc3Cc3ccccc3C2C1 (stereo not given) : Population Membrane Permeable-Phenotype (%) is 0

What the record says about C[C@@H]1C[C@H]2[C@@H]3CCC4=CC(=O)C=C[C@]4(C)[C@@]3(F)[C@@H](O)C[C@]2(C)[C@@]1(O)C(=O)CO : Population Membrane Permeable-Phenotype (%) is 0

What the record says about CC(C)(C)c1ccc(S(=O)(=O)Nc2ccc(Cl)cc2C(=O)c2cc[n+]([O-])cc2)cc1 : Population Membrane Permeable-Phenotype (%) is 1
